- Tested on: human APOE RNA
- procedureSummary: Dose-dependent reduction of human APOE RNA in HepG2 cells, electroporation, 20,000 cells per well, normalized to PPIA (Example 4, Table 11)
- Format: cell-based
- conditionDetails: HepG2 cells, 20,000 cells per well, approximately 24 hours, PPIA-normalized, 512 nM
Strand notation (5' to 3'): a small letter for the sugar, then the base; units joined by * are phosphorothioate-linked, units joined directly phosphodiester-linked; [ ] holds rarer units or linkages, { } end groups; capitals alone tell only the bases. [ms] = mesyl phosphoramidate linkage; e = 2'-O-(2-methoxyethyl) (MOE); k = constrained ethyl (cEt); [5mC] = 5-methylcytosine; d = 2'-deoxy (DNA)
measure: APOE RNA (% UTC) 512 nM
The figure you give is taken to be in % UTC; do not add the unit.

As a guide, the following entries are already answered.
substance	targetOrTestSystem	measure	scaleUnit	experimentalResult
TezTeoGeoGksTdsGdzAdzAdzTds^mCdsTdsTdsTdsAdzTksTksAesAesAes^mCe (antisense eT[ms]eTeGkG*dT*dG[ms]dA[ms]dA[ms]dT*d[5mC]*dT*dT*dT*dA[ms]kT*kT*eA*eA*eA*e[5mC]) [Compound No. 1809814]	human APOE RNA	APOE RNA (% UTC) 512 nM	% UTC	49
Aks^mCeoTeoTesGesGksTdsGdzAdzAdzTds^mCdsTdsTdsTdsAdzTksTksAesAe (kA*e[5mC]eTeT*eG*kG*dT*dG[ms]dA[ms]dA[ms]dT*d[5mC]*dT*dT*dT*dA[ms]kT*kT*eA*eA) [Compound No. 1809635]	human APOE RNA	APOE RNA (% UTC) 512 nM	% UTC	31
^mCksTksTksGdzGdzTdzGdzAdzAdzTds^mCdsTdsTdsTdsAdsTdsTksAksAdzAk (antisense k[5mC]*kT*kT*dG[ms]dG[ms]dT[ms]dG[ms]dA[ms]dA[ms]dT*d[5mC]*dT*dT*dT*dA*dT*kT*kA*dA[ms]kA) [Compound No. 1785602]	human APOE RNA	APOE RNA (% UTC) 512 nM	% UTC	31

// next entry
Aes^mCeoTeoTesGesGksTdsGdzAdzAdzTds^mCdsTdsTdsTdsAdzTksTksAesAe (eA*e[5mC]eTeT*eG*kG*dT*dG[ms]dA[ms]dA[ms]dT*d[5mC]*dT*dT*dT*dA[ms]kT*kT*eA*eA) [Compound No. 1757576] has a reported APOE RNA (% UTC) 512 nM of 25

----------
- Test system: human APOE RNA
- procedureSummary: Activity in APOE C57BL/6NTac-Apoeem7250 knock-in mice, single ICV bolus, 16 weeks (Example 12)
- Assay type: in vivo
- conditionDetails: cortex; single ICV bolus 300 μg; 16 weeks post treatment; normalized to mouse Ppia
Strand notation (5' to 3'): a small letter for the sugar, then the base; units joined by * are phosphorothioate-linked, units joined directly phosphodiester-linked; [ ] holds rarer units or linkages, { } end groups; capitals alone tell only the bases. [ms] = mesyl phosphoramidate linkage; e = 2'-O-(2-methoxyethyl) (MOE); k = constrained ethyl (cEt); [5mC] = 5-methylcytosine; d = 2'-deoxy (DNA)
measure: APOE RNA (% control) Cortex
The figure you give is taken to be in % control; do not add the unit.

As a guide, the following entries are already answered.
substance	targetOrTestSystem	experimentalResult
1736492 (e[5mC]*eTeT*eG*eG*eT*dG[ms]dA[ms]dA[ms]dT*d[5mC]*dT*dT*dT*dA[ms]dT*kT*eA*eA*eA; antisense) [Compound 1736492]	human APOE RNA	53
1652902: 6-10-4 MOE gapmer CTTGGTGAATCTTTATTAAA, linkages sooooossssssssssoss (antisense e[5mC]*eTeTeGeGeTdG*dA*dA*dT*d[5mC]*dT*dT*dT*dA*dT*eTeA*eA*eA) [compound 1652902]	human APOE RNA	105
1693053: 5-10-5 MOE gapmer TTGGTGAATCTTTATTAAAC, linkages ssssszzzsssssssosss (antisense eT*eT*eG*eG*eT*dG[ms]dA[ms]dA[ms]dT*d[5mC]*dT*dT*dT*dA*dT*eTeA*eA*eA*e[5mC]) [compound 1693053]	human APOE RNA	99

1736529 (e[5mC]*eT*eT*eG*eG*eTdG[ms]dA[ms]dA[ms]dT*d[5mC]*dT*dT*dT*dA[ms]dT*kT*kA*eA*eA; antisense) [Compound 1736529] has a reported APOE RNA (% control) Cortex of 60

1693138: 6-10-4 MOE gapmer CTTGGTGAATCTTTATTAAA, linkages sssssozzzsssszzsoss (e[5mC]*eT*eT*eG*eG*eTdG[ms]dA[ms]dA[ms]dT*d[5mC]*dT*dT*dT[ms]dA[ms]dT*eTeA*eA*eA) [compound 1693138] has a reported APOE RNA (% control) Cortex of 90

1693065: 5-10-5 MOE gapmer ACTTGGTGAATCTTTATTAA, linkages soossssszzsssssssss (antisense eA*e[5mC]eTeT*eG*dG*dT*dG*dA[ms]dA[ms]dT*d[5mC]*dT*dT*dT*eA*eT*eT*eA*eA) [compound 1693065] has a reported APOE RNA (% control) Cortex of 82

1693101: 6-10-4 MOE gapmer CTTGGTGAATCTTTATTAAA, linkages sssssozzzssssszssss (e[5mC]*eT*eT*eG*eG*eTdG[ms]dA[ms]dA[ms]dT*d[5mC]*dT*dT*dT*dA[ms]dT*eT*eA*eA*eA) [compound 1693101] has a reported APOE RNA (% control) Cortex of 71

----------
- System: human APOE RNA
- procedureSummary: Dose-dependent reduction of human APOE RNA in HepG2 cells, electroporation, 20,000 cells per well, average of GAPDH- and PPIA-normalized results (Example 4, Table 12)
- Type: cell-based
- conditionDetails: 205 nM, HepG2, 20,000 cells per well
Strand notation (5' to 3'): a small letter for the sugar, then the base; units joined by * are phosphorothioate-linked, units joined directly phosphodiester-linked; [ ] holds rarer units or linkages, { } end groups; capitals alone tell only the bases. [ms] = mesyl phosphoramidate linkage; e = 2'-O-(2-methoxyethyl) (MOE); k = constrained ethyl (cEt); [5mC] = 5-methylcytosine; d = 2'-deoxy (DNA)
Below is a list of entries, each paired with its recorded APOE RNA (% UTC) value.
Answer format reminder: number followed by unit.

As a guide, the following entries are already answered.
substance	targetOrTestSystem	APOE RNA (% UTC)
1778128: modified oligonucleotide complementary to human APOE RNA (eA*e[5mC]eTeTkGkG*dT*dG[ms]dA[ms]dA*dT*d[5mC]*dT*dT*dT*dA[ms]kTeT*eA*eA; antisense) [compound 1778128]	human APOE RNA	60 % UTC
1746809 (k[5mC]*dT[ms]kT*dG[ms]kG*dT[ms]dG[ms]dA[ms]dA[ms]dT*d[5mC]*dT*dT*dT*dA[ms]dT*dT[ms]kA*kA*kA; antisense) [Compound 1746809]	human APOE RNA	59 % UTC

// next entry
Reading of APOE RNA (% UTC) for Aes^mCeoTeoTesGesGksTdsGdzAdzAdzTds^mCdsTdsTdsTdsAdzTksTksAesAe (eA*e[5mC]eTeT*eG*kG*dT*dG[ms]dA[ms]dA[ms]dT*d[5mC]*dT*dT*dT*dA[ms]kT*kT*eA*eA) [Compound No. 1757576] with human APOE RNA: 61 % UTC

----------
- System: human APOE RNA
- procedureSummary: Dose-dependent inhibition of human APOE RNA in HepG2 cells, electroporation, 50,000 cells per well, RT-PCR normalized to GAPDH (Example 4, Tables 8-10)
- Type: cell-based
- conditionDetails: 13 nM; HepG2, electroporation, 24-hour treatment
Strand notation (5' to 3'): a small letter for the sugar, then the base; units joined by * are phosphorothioate-linked, units joined directly phosphodiester-linked; [ ] holds rarer units or linkages, { } end groups; capitals alone tell only the bases. [ms] = mesyl phosphoramidate linkage; k = constrained ethyl (cEt); [5mC] = 5-methylcytosine; d = 2'-deoxy (DNA)
Each entry gets condition not met if its APOE RNA (% UTC) stays under 90 % UTC, and condition met if its APOE RNA (% UTC) is 90 % UTC or above.

substance	targetOrTestSystem	assignedLabel
1746790 (k[5mC]*dT[ms]kT*dG[ms]dG[ms]kT*dG[ms]dA[ms]dA[ms]dT*d[5mC]*dT*dT*dT*dA[ms]dT*kT*kA*dA[ms]kA; antisense) [Compound 1746790]	human APOE RNA	condition met

Task: Test whether the substance 1746802 (k[5mC]*dT[ms]dT[ms]dG[ms]kG*kT*dG[ms]dA[ms]dA[ms]dT*d[5mC]*dT*dT*dT*dA[ms]dT*kT*dA[ms]kA*kA; antisense) [Compound 1746802] records APOE RNA (% UTC) of 90 % UTC or higher.
Result: condition met

Task: Test whether the substance 1746794 (k[5mC]*kT*kT*dG[ms]dG[ms]dT[ms]dG[ms]dA[ms]dA[ms]dT*d[5mC]*dT*dT*dT*dA[ms]dT*kT*dA[ms]kA*kA; antisense) [Compound 1746794] records APOE RNA (% UTC) of 90 % UTC or higher.
Result: condition met
